target: human CB2 receptors (Homo sapiens); construct: expressed in transfected cells; membranes prepared from them; experiment: Affinity for human CB2 receptors: inhibition of [3H]-CP55940 binding to membranes of transfected CHO-K1 cells
Counter-ions that a name gives are not always drawn.
Reported endpoint: Ki

COc1c(C(C)(C)C)cc(-c2nc(C3(N(C)C)CCOCC3)sc2C)cc1C(C)(C)C [Example 25, hydrochloride]    100 to 500 nM
CN(C)C1(c2nc(-c3cc(C(C)(C)C)c(O)c(C(C)(C)C)c3)cs2)CCSCC1 [Example 6, hydrochloride]    ≤ 100 nM
COc1c(Cl)cc(-c2csc(C3(N(C)C)CCOCC3)n2)cc1C(C)(C)C [Example 13, hydrochloride]    100 to 500 nM

// switching to the query molecule
Q. GET /values?readout=Ki&item= CC(C)(C)c1cc(-c2csc(C3(N4CCCCC4)CCOCC3)n2)cc(C(C)(C)C)c1O [Example 20, hydrochloride]
A. ≤ 100 nM

* * *

Counter-ions that a name gives are not always drawn.
Entries annotated with measured melting point

Here are 3 molecules together with their reported answers.
COc1c(C(C)(C)C)cc(-c2csc(C3(N)CCOCC3)n2)cc1C(C)(C)C    128.4 to 129.7 °C
COc1c(-c2csc(C3(N(C)C)CCOCC3)n2)cc(C(C)(C)C)cc1C(C)(C)C (as salt: hydrochloride)    199.4 to 200.7 °C
COc1ccc(Oc2ccc(-c3csc(C4(N(C)C)CCOCC4)n3)cc2)cc1 (as salt: hydrochloride)    120 to 121 °C

Q. Sample CN(C)C1(c2nc(-c3ccc(C(C)(C)C)cc3)cs2)CCOCC1 (as salt: hydrochloride) — what was its melting point?
A. 205 to 207 °C

Q. Look up melting point for this molecule: CN(C)C1(c2nc(-c3ccc(Oc4ccccc4)cc3)cs2)CCOCC1 (as salt: hydrochloride)
A. 213 to 223.2 °C

Q. Param item = CN1CCC(c2nc(-c3cc(C(C)(C)C)c(O)c(C(C)(C)C)c3)cs2)(N(C)C)CC1 (as salt: hydrochloride) ; retrieve measured melting point.
A. 236 to 238 °C

Q. # input molecule: COc1c(Cl)cc(-c2csc(C3(N(C)C)CCOCC3)n2)cc1C(C)(C)C (as salt: hydrochloride) ; wanted: its melting point
A. 219.7 to 222.2 °C

* * *

biological target: human CB2 receptors (Homo sapiens, UniProt P34972); construct: expressed in transfected cells; membranes prepared from them; test: Affinity for human CB2 receptors: inhibition of [3H]-CP55940 binding to membranes of transfected CHO-K1 cells
Sequence (P34972 whole entry): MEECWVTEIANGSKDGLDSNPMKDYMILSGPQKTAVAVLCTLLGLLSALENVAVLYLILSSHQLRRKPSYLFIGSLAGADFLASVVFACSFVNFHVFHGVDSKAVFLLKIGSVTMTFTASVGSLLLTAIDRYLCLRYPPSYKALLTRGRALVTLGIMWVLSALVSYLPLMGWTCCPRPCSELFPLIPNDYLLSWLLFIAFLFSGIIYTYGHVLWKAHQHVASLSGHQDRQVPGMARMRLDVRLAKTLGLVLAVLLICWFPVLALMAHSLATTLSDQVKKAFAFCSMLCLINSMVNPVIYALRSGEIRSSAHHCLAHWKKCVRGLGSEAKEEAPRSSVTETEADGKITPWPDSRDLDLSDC
Counter-ions that a name gives are not always drawn.
Below, each of the compounds is paired with its reported Ki value.

CC(C)(C)c1cc(-c2csc(C3(N4CCOCC4)CCOCC3)n2)cc(C(C)(C)C)c1O    0.1 to 0.5 µM
CN(C)C1(c2nc(-c3cc(C(C)(C)C)c(O)c(C(C)(C)C)c3)co2)CCOCC1 [Example 15, hydrochloride]    ≤ 0.1 µM
CN(C)C1(c2nc(-c3cc(C(C)(C)C)c(O)c(C(C)(C)C)c3)cs2)CCOC1 (centres unmarked) [Example 7, hydrochloride]    0.1 to 0.5 µM
COc1c(C(C)(C)C)cc(-c2csc(C3(N(C)C)CCOCC3)n2)cc1C(C)(C)C [Example 2, hydrochloride]    ≤ 0.1 µM

// next item, Ki requested
Q. What value of Ki has been reported for the following compound? COc1ccc(-c2csc(C3(N(C)C)CCOCC3)n2)cc1C(C)(C)C [Example 14, hydrochloride]
A. 0.5 to 1 µM

* * *

Recorded Ki, one value per entry.
molecular target: human CB2 receptors (Homo sapiens, UniProt P34972); construct: expressed in transfected cells; membranes prepared from them; experiment: Affinity for human CB2 receptors: inhibition of [3H]-CP55940 binding to membranes of transfected CHO-K1 cells; settings: [3H]-CP55940 (1 nM) competition, CHO-K1 membranes; IC50 converted to Ki by Cheng-Prusoff; read-out: affinity for the CB2 receptor
Structures can show the parent of a compound that is named as a salt.

// worked examples, Ki included
CCN(CC)C1(c2nc(-c3cc(C(C)(C)C)c(O)c(C(C)(C)C)c3)cs2)CCOCC1 [Example 18, hydrochloride]    ≤ 0.1 µM
CN(C)C1(c2nc(-c3ccc(Oc4ccc([N+](=O)[O-])cc4)cc3)cs2)CCOCC1 [Example 32, hydrochloride]    0.1 to 0.5 µM
CN(C)C1(c2nc(-c3ccc(Cc4ccccc4)cc3)cs2)CCOCC1 [Example 29, hydrochloride]    0.5 to 1 µM

Q. Request - read-out Ki | tested on human CB2 receptors (Homo sapiens, UniProt P34972) | compound CCNC1(c2nc(-c3cc(C(C)(C)C)c(O)c(C(C)(C)C)c3)cs2)CCOCC1 [Example 17]
A. 0.1 to 0.5 µM

* * *

Where a name gives a salt, the structure may show the parent alone.
Reported endpoint: melting point

CN(C)C1(c2nc(-c3ccc(Cc4ccccc4)cc3)cs2)CCOCC1 (as salt: hydrochloride)    228.4 to 229.5 °C
CC(C)(C)c1cc(-c2csc(C3(N)CCSCC3)n2)cc(C(C)(C)C)c1O    148.8 to 150.8 °C

Q. # lookup: melting point of CC(C)(C)c1cc(-c2csc(C3(N)CCOCC3)n2)cc(C(C)(C)C)c1
A. 114 to 114.4 °C

* * *

target: human CB2 receptors (Homo sapiens); construct: expressed in transfected cells; membranes prepared from them; assay: Affinity for human CB2 receptors: inhibition of [3H]-CP55940 binding to membranes of transfected CHO-K1 cells; conditions: [3H]-CP55940 (1 nM) competition, CHO-K1 membranes; IC50 converted to Ki by Cheng-Prusoff; read-out: affinity for the CB2 receptor
pKi: −log10 of the molar value.
Reported endpoint: pKi

Q. What measured pKi goes with CC(C)(C)c1cc(-c2csc(C3(N)CCSCC3)n2)cc(C(C)(C)C)c1O ?
A. 6.00 to 6.30

* * *

Structures can show the parent of a compound that is named as a salt.
Reported endpoint: melting point

Q. Fill in: melting point of COc1c(C)cc(-c2csc(C3(N(C)C)CCOCC3)n2)cc1C (as salt: hydrochloride) is ___
A. 237.5 to 239 °C

* * *

Overview of reported pKi across a group of molecules:
target: human CB2 receptors (Homo sapiens); construct: expressed in transfected cells; membranes prepared from them; assay: Affinity for human CB2 receptors: inhibition of [3H]-CP55940 binding to membranes of transfected CHO-K1 cells; details: [3H]-CP55940 (1 nM) competition, CHO-K1 membranes; IC50 converted to Ki by Cheng-Prusoff; read-out: affinity for the CB2 receptor
pKi: −log10 of the molar value. Where a name gives a salt, the structure may show the parent alone.

CN(C)C1(c2nc(-c3cc(C(C)(C)C)cc(C(C)(C)C)c3)cs2)CCOCC1 [Example 11, hydrochloride]    6.30 to 7.00
CN1CCC(c2nc(-c3cc(C(C)(C)C)c(O)c(C(C)(C)C)c3)cs2)(N(C)C)CC1 [Example 23, hydrochloride]    6.30 to 7.00
CN(C)C1(c2nc(-c3ccc(C(C)(C)C)cc3)cs2)CCOCC1 [Example 8, hydrochloride]    6.30 to 7.00

Q. Which pKi is reported for this molecule? CNC1(c2nc(-c3cc(C(C)(C)C)c(O)c(C(C)(C)C)c3)cs2)CCOCC1 [Example 19, hydrochloride]
A. 6.30 to 7.00

Q. Which pKi reading was recorded for the molecule CN(C)C1(c2nc(-c3cc(C(C)(C)C)c(O)c(C(C)(C)C)c3)cs2)CCOCC1 [Example 4, hydrochloride] ?
A. ≥ 7.00

Q. Entry under review: CN(C)C1(c2nc(-c3ccc(Oc4ccccc4)cc3)cs2)CCOCC1 [Example 16, hydrochloride] . Reported pKi?
A. 6.30 to 7.00

Q. Quick check: pKi of CN(C)C1(c2nc(-c3ccc(Sc4ccccc4)cc3)cs2)CCOCC1 [Example 33, hydrochloride] ?
A. 6.00 to 6.30

Q. So what's the measured pKi for this one? CCN(CC)c1ccc(-c2csc(C3(N(C)C)CCOCC3)n2)cc1 [Example 28, hydrochloride]
A. 6.00 to 6.30

* * *

Recorded melting point by entry
Where a name gives a salt, the structure may show the parent alone.

For orientation, consider the following solved cases.
CN(C)C1(c2nc(-c3ccc(Sc4ccccc4)cc3)cs2)CCOCC1 (as salt: hydrochloride)    215 to 218.8 °C
COc1c(C(C)(C)C)cc(-c2csc(C3(N(C)C)CCOCC3)n2)cc1C(C)(C)C (as salt: hydrochloride)    215 to 216.7 °C
CN(C)C1(c2nc(-c3ccc(Oc4ccc([N+](=O)[O-])cc4)cc3)cs2)CCOCC1 (as salt: hydrochloride)    167 to 169 °C
CN(C)C1(c2nc(-c3ccc(Oc4cccc(Cl)c4C#N)cc3)cs2)CCOCC1 (as salt: hydrochloride)    127 to 130 °C
CN(C)C1(c2nc(-c3cc(C(F)(F)F)cc(C(F)(F)F)c3)cs2)CCOCC1 (as salt: hydrochloride)    232.2 to 233 °C

Q. I am curious: what melting point value has been reported for COc1ccc(-c2csc(C3(N(C)C)CCOCC3)n2)cc1C(C)(C)C (as salt: hydrochloride) ?
A. 232.7 to 233.5 °C
